MEASURED ON: Short transient receptor potential channel 4 (Mus musculus) (UniProt Q9QUQ5)
Sequence (Q9QUQ5 whole entry, looked up): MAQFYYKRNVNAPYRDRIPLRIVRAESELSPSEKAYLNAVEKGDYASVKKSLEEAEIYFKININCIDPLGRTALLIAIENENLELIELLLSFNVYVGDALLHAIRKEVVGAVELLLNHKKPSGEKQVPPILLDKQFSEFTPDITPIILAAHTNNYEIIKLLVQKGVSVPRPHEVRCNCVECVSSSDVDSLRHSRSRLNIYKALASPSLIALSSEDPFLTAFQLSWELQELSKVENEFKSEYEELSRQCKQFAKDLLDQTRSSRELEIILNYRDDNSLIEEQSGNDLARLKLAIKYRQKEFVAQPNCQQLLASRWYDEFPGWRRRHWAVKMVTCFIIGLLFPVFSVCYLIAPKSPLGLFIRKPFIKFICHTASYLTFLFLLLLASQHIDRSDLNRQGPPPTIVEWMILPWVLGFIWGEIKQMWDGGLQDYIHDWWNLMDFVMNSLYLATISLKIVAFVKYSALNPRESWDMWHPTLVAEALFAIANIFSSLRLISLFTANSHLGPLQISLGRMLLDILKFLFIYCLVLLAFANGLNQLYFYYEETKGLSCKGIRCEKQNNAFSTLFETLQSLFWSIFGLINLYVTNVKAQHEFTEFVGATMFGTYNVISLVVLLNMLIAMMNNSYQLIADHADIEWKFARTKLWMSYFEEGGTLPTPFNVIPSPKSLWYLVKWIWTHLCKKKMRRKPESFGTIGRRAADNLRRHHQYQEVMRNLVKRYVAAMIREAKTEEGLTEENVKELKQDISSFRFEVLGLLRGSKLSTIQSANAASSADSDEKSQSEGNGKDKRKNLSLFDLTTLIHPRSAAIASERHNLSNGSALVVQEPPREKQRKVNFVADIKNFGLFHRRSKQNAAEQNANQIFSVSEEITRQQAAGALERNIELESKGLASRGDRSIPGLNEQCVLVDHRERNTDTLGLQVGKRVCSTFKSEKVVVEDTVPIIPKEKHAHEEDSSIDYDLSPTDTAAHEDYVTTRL
ASSAY OVERVIEW: calcium flux activators in TRPC4/5HT1a cells, counter-screen for TRPC4 activator project, cell-based, second counter screen, HEK293 TRPC4/5HT1a, Fluo-4 (AID 434977)
CONDITION SET: Fluo-4 calcium flux, at 10 µM
Calls of active or inactive are those of the source.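 The calls were made as follows: active = calcium signal rise above buffer-control mean plus 5 SD in both duplicates, and also a hit in the primary screen; inactive = the rest.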
Mark one answer only. Choices: active, inactive

Record excerpt, results attached:
# RECORD SMILES, CATEGORY
records = [
    ("COc1ccc(/C=C2/SC(=S)N(NS(=O)(=O)c3ccc(C)cc3)C2=O)cc1", "inactive"),
    ("O=C(c1ccncc1)N1c2ccccc2Sc2ccccc21", "inactive"),
    ("CCN1CCN(c2ccc(S(=O)(=O)N3CCOCC3)cc2NC(=O)c2ccccc2SC)CC1", "active"),
    ("CCN(CC)c1nc2ccccc2c(N)c1-c1ccccc1", "inactive"),
    ("Cc1ccn2c(CNCCCn3cccn3)c(C(=O)N3CCCCCC3)nc2c1", "inactive"),
]

Q. What is the recorded call for this compound in the test? Clc1ccc(CN2C3=NCCN3c3ccccc32)cc1Cl
A. inactive

Q. Tell me the recorded outcome of this test for COc1cccc(OCC(=O)NC2CCCCC2)c1 .
A. inactive

====

MEASURED ON: Short transient receptor potential channel 4 (Mus musculus) (UniProt Q9QUQ5)
ASSAY OVERVIEW: blockers of DAMGO-evoked TRPC4 calcium flux – cell-based, Fluo4, HEK293 TRPC4beta/mu-opioid, confirmation (AID 2636)
CONDITION SET: at 10 µM
Activity calls are given as the source filed them.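 Rule for the calls: active = calcium signal cut by more than 3 SD below the full-agonist control yet still positive, in both repeats and the earlier primary screen; inactive = the rest.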
Please state which outcome applies, choosing from yes for active, no for inactive

# COMPOUND, CATEGORY
data = [
    ("CCN(CC)C(=O)C1CCCN(Cc2cccc(Oc3ccccc3)c2)C1 (stereo unspecified)", "yes"),
    ("CSc1ccc2nnc(-c3cccc(F)c3)n2n1", "no"),
    ("O=C(NN/C(=N/S(=O)(=O)c1ccc(Cl)cc1)c1ccccc1)c1cccc(Cl)c1", "yes"),
    ("O=C(NCc1ccccc1)C1=C[C@H](c2ccc(Br)cc2)C[C@H](OCc2ccc(CO)cc2)O1", "no"),
    ("COc1ccccc1CC(Cc1nc2ccccc2[nH]1)c1nc2ccccc2[nH]1 (stereo unspecified)", "yes"),
    ("COc1ccc(C(CNc2ccc(C(F)(F)F)cn2)N(C)C)cc1OC (stereo unspecified)", "no"),
]

Q. Assay result, entry O=C(C1CC1)N1CCc2cc(S(=O)(=O)NC3CCN(Cc4ccccc4)CC3)ccc21 — outcome?
A. no

Q. Dear colleague, could you share the recorded outcome for NC(=NC1CCCCC1)c1ccc(Cl)cc1 when you have a moment?
A. yes

Q. Call for entry CN(C)S(=O)(=O)c1cccc(COC(=O)c2ccc(Cl)cc2O)c1 :
A. no

Q. I'd appreciate the recorded outcome for OCC1(CCc2ccccc2)CCN(Cc2cc(Cl)ccc2O)CC1 from this test.
A. yes

Q. Assay result, entry Cc1sc2nc(SCC(N)=O)n(C)c(=O)c2c1C — outcome?
A. no

Q. Any idea what this test logged for c1ccc(-c2nc(N3CCNCC3)nc3ccccc23)cc1 ?
A. no

====

Test system: TRPC4 (mouse), co-expressed with 5HT1a in HEK293
ASSAY OVERVIEW: enhancement of serotonin-evoked TRPC4 response – cell-based, second counter screen, HEK293 TRPC4/5HT1a, Fluo-4, counter-screen for TRPC4 potentiator project, confirmation (AID 434979)
CONDITION SET: Fluo-4 calcium flux, at 10 µM, serotonin added at its EC20 dose
Active and inactive are the calls of the source.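 Rule for the calls: active = signal rise over 3 SD above mean of control wells given weak agonist, in both repeats and first screen; inactive = the rest.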
Choose one outcome from this list and give only that: active, inactive

Please review the following examples before continuing.
# MOLECULE, CATEGORY
records = [
    ("O=C1Cc2ccccc2Sc2c(OCCN3CCCCC3)cccc21", "inactive"),
    ("COC(=O)c1cccc(NC(=S)Nc2cccc(Cl)c2Cl)c1", "inactive"),
    ("CC1CCCCC1NS(=O)(=O)c1ccc(S(=O)(=O)N2CCCC2)cc1 (centres undefined)", "active"),
]

Okay, next one:
Q. Which result was noted for this molecule in the test: O=C(COC(=O)CSc1ccc([N+](=O)[O-])cc1)NCCCc1ccccc1
A. inactive

====

MEASURED ON: Short transient receptor potential channel 4 (Mus musculus)
ASSAY OVERVIEW: blockers of DAMGO-evoked TRPC4 calcium flux – cell-based, second round, Fluo4, HEK293 TRPC4beta/mu-opioid, 1 µM, confirmation (AID 2637)
CONDITION SET: at 1 µM
Activity calls are given as the source filed them.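 How the source made its calls: active means calcium signal ratio cut to more than 3 SD under the fully stimulated control mean yet still positive, in both repeats and the primary screen; inactive means the rest.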
Answer with one of the outcomes given here: 1 (yes) for active, 0 (no) for inactive

Check out these entries, answers already filled in.
# COMPOUND, CATEGORY
measured = [
    ("Cc1cc(C)c2[nH]c(=O)c(CN(Cc3cccnc3)C(=S)NCCCN(C)C)cc2c1", "1 (yes)"),
    ("CCOC(=O)COc1cc(-n2c(=S)[nH]c3ccccc3c2=O)c(Cl)cc1Cl", "0 (no)"),
    ("OC(COc1ccccc1)CN1C2=NCCCN2c2ccccc21 (stereo not given)", "0 (no)"),
]

Q. Call for entry Cc1ccc(Cn2c(=N)c(C(=O)NCCN3CCOCC3)cc3c(=O)n4ccccc4nc32)cc1 :
A. 0 (no)

Q. Per the records of this test, what outcome belongs to CCOC(=O)c1c(C)n(-c2ccc(C)cc2)c2ccc(OCC(O)CNCC3CCCO3)cc12 (stereo not given) ?
A. 0 (no)

====

MEASURED ON: Short transient receptor potential channel 4 (Mus musculus) (UniProt Q9QUQ5)
ASSAY OVERVIEW: blockers of DAMGO-evoked TRPC4 calcium flux – cell-based, Fluo4, HEK293 TRPC4beta/mu-opioid, confirmation (AID 2636)
CONDITION SET: at 10 µM; active compounds read high
Activity calls are given as the source filed them.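 Rule for the calls: active = calcium signal cut by more than 3 SD below the full-agonist control yet still positive, in both repeats and the earlier primary screen; inactive = the rest.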
OBSERVATION TYPE: inhibition

# COMPOUND, inhibition
records = [
    ("O=[N+]([O-])c1ccc(O)c(C2=NNC(c3ccccc3F)C2)c1 (stereo not given)", "55% (active)"),
    ("N/C(Cc1cccc2ccccc12)=N\\OC(=O)c1cccs1", "54% (active)"),
    ("CCCCN(C)CCNC(=O)C1CCCN(S(=O)(=O)c2cccc3nsnc23)C1 (stereo not given)", "inactive"),
    ("C/C(N)=C(/C#N)C(=O)COC(=O)CC12CC3CC(CC(C3)C1)C2", "83% (active)"),
]

# evaluate next
Q. Please state recorded inhibition (tested on Short transient receptor potential channel 4 (Mus musculus) (UniProt Q9QUQ5)) of COc1cc(COCC(O)CN2CCN(CCN3C(=O)c4cccc5cccc(c45)C3=O)CC2)cc(OC)c1OC (stereo not given)
A. inactive

====

MEASURED ON: Short transient receptor potential channel 4 (Mus musculus) (UniProt Q9QUQ5)
ASSAY OVERVIEW: blockers of DAMGO-evoked TRPC4 calcium flux – cell-based, second round, Fluo4, HEK293 TRPC4beta/mu-opioid, 1 µM, confirmation (AID 2637)
CONDITION SET: at 1 µM
Active and inactive are the calls of the source.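 The calls were made as follows: active = calcium signal ratio cut to more than 3 SD under the fully stimulated control mean yet still positive, in both repeats and the primary screen; inactive = the rest.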
Respond using exactly one of the listed classes: TRUE (active), FALSE (inactive)

// known answers, use as guide
# COMPOUND, CATEGORY
rows = [
    ("CC(CN1CCCC(C(N)=O)C1)c1ccccc1 (configuration not stated)", "FALSE"),
    ("COc1cc(C(F)(F)F)nc2c(Br)c(C(C)(C)C)nn12", "TRUE"),
]

Q. Entry OC(CNCCC(c1ccccc1)c1ccccc1)COc1ccccc1 (configuration not stated) : call = ?
A. FALSE

Q. Write down the call the test reported for this compound. Item: CCCCN(CC)CCCNC(=O)Cn1nc(Cc2cccnc2)c2ccccc2c1=O
A. FALSE

====

Test system: TRPC4 beta (transient receptor potential cation channel C4), mouse
ASSAY OVERVIEW: TRPC4 cation channel opening, retest – cell-based, Fluo4 calcium, HEK293 TRPC4beta/mu-opioid, duplicates, 10 µM, confirmation (AID 2426)
CONDITION SET: Fluo4 calcium fluorescence, at 10 µM
The source made the active and inactive calls.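 Rule for the calls: active = fluorescence ratio normalized to control raised more than 50% in primary screen plus both repeat runs; inactive = the rest.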
One label from this list, please: 1 (active), 0 (inactive)

Answered cases to consult:
# COMPOUND, CATEGORY
rows = [
    ("CCc1ccc(C(=O)c2cnc3ccc(OC)cc3c2N2CCN(CC)CC2)cc1", 1),
    ("CN(C)C(CNC(=O)c1oc2ccccc2c1CSc1ncn[nH]1)c1ccco1 (stereo not given)", 0),
    ("O=C(C1=C[C@H](c2ccc(C(F)(F)F)cc2)C[C@H](OCCCCO)O1)N1CCOCC1", 0),
    ("CCC(=O)N1CCc2cc(Br)cc(S(=O)(=O)NCCCN(CC)Cc3ccccc3)c21", 1),
    ("CCc1ccc2nc(N=C(N)N)nc(C)c2c1", 0),
    ("COc1ccc(Nc2c3c(nc4ccccc24)CCC3)cc1", 0),
    ("Nc1cc(=O)nc(SCC(=O)N2CCN(c3ccccc3)CC2)n1-c1ccc(F)cc1", 0),
    ("Cc1ccc(S(=O)(=O)/N=C2/NC(=O)/C(=C\\c3cc(Br)cc(Br)c3O)S2)cc1", 0),
    ("CCc1nc2ccccc2n1Cc1ccccc1F", 0),
    ("O=C(CC(=O)c1c(F)cccc1Cl)c1ccccc1O", 1),
]

Q. Recorded call for CC(C)CN(CC(C)C)c1nc(N)c(C#N)c(CC#N)c1C#N ?
A. 0
